read-out: cysteine-aspartic acid protease (CASP8), CASP8 (gene 841); assay: LTEA_HepaRG_CASP8: Life Technologies and Expression Analysis (LTEA) Assay for cysteine-aspartic acid protease (CASP8) using HepaRG (AID 2283480); conditions: mRNA level, 48 h; actives raise or lower the signal
The source made the active and inactive calls. How the source made its calls: active means hit-call score of the fitted dose curve at least 0.9, where 1 is the maximum; inactive means score below 0.9.
Reply using exactly one outcome from active, inactive

Check out these entries, answers already filled in.
| compound | category |
| --- | --- |
| CC(C)(C)c1cc(O)ccc1O | inactive |
| CCOP(=S)(OCC)Oc1nc(Cl)c(Cl)cc1Cl | inactive |
| ClC1(Cl)C2(Cl)C3(Cl)C4(Cl)C(Cl)(Cl)C5(Cl)C3(Cl)C1(Cl)C5(Cl)C24Cl (configuration not stated) | inactive |
| CCC(C)(C)c1ccc(O)c(C(C)(C)CC)c1 | inactive |

Query block: # lookup: test call for `CC(=O)[O][Hg][c]1ccccc1`
Result block: active

Query block: And then `CC(C)(c1ccccc1)c1ccc(O)c(C(C)(C)c2ccccc2)c1` , what is it?
Result block: inactive

Query block: `C[C@]12CCC(=O)C[C@@H]1CC[C@@H]1[C@@H]2CC[C@]2(C)[C@@H](O)CC[C@@H]12` , same question.
Result block: inactive

Query block: One more compound: `CC(C)(OO)c1ccccc1`
Result block: inactive

* * *

read-out: Cellular tumor antigen p53 (Homo sapiens) (UniProt P04637); test: LTEA_HepaRG_TP53: Life Technologies and Expression Analysis (LTEA) Assay for Tumor Protein P53 (TP53) using HepaRG (AID 2283537); details: mRNA level, 48 h; actives raise or lower the signal
Sequence (P04637 whole entry, looked up): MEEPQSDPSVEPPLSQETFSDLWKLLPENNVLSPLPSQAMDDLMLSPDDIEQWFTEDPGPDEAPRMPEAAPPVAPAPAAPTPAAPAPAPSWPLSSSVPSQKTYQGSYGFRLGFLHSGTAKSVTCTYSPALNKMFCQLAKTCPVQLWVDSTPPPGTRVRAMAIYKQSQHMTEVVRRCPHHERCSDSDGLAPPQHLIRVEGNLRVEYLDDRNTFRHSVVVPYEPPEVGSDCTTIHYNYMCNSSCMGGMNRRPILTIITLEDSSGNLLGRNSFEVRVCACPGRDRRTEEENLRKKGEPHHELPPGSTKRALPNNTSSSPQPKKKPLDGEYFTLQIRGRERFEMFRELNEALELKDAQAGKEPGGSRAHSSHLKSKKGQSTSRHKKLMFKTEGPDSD
Activity calls are given as the source filed them. Rule for the calls: active = hit-call score of the fitted dose curve at least 0.9, where 1 is the maximum; inactive = score below 0.9.
Valid outcomes are listed here; reply with one: 1 (yes) for active, 0 (no) for inactive

// below: answered molecules
| molecule | category |
| --- | --- |
| Cc1ccccc1N | 0 (no) |
| CCC(C)(C)c1ccc(O)c(C(C)(C)CC)c1 | 0 (no) |
| CC(C)(OO)c1ccccc1 | 0 (no) |
| O=C1C2(Cl)C3(Cl)C4(Cl)C(Cl)(Cl)C5(Cl)C3(Cl)C1(Cl)C5(Cl)C24Cl (configuration not stated) | 1 (yes) |
| C=CC(=O)OCCCCCC(C)C | 0 (no) |
| CCOP(=S)(OCC)Oc1nc(Cl)c(Cl)cc1Cl | 0 (no) |

Query block: Short answer needed: outcome of this test for `C=C(C)C(=O)[O][Sn]([CH2]CCC)([CH2]CCC)[CH2]CCC` ?
Result block: 0 (no)

Query block: And what about the molecule `O=C(Nc1ccc2[nH]ccc2c1)c1cc2cc(F)ccc2n1Cc1cccc(F)c1` ?
Result block: 1 (yes)

Query block: Here is the next molecule: `CCOP(=S)(OCC)SCSP(=S)(OCC)OCC`
Result block: 1 (yes)

Query block: Now the molecule `O=c1[nH]c(=O)[nH]c(=O)[nH]1`
Result block: 0 (no)

Query block: Can you handle `NC(=O)O` next?
Result block: 0 (no)

* * *

read-out: adenosine kinase (ADK) gene, ADK (gene 132); assay: LTEA_HepaRG_ADK: Life Technologies and Expression Analysis (LTEA) Assay for adenosine kinase (ADK) gene using HepaRG (AID 2283471); settings: mRNA level, 48 h; actives raise or lower the signal
Active and inactive are the calls of the source. The calls were made as follows: active = hit-call score of the fitted dose curve at least 0.9, where 1 is the maximum; inactive = score below 0.9.
Answer with one of the outcomes given here: true (1) for active, false (0) for inactive

Known results for compounds:
| compound | category |
| --- | --- |
| O=C(Nc1ccc2[nH]ccc2c1)c1cc2cc(F)ccc2n1Cc1cccc(F)c1 | false (0) |
| CCN1CCC2(CC1)COc1cc3c(cc12)N(C(=O)c1ccc(-c2ccc(-c4nnc(C)o4)cc2C)cc1)CC3 | true (1) |

Query block: Returns: the outcome recorded for O=C1C2(Cl)C3(Cl)C4(Cl)C(Cl)(Cl)C5(Cl)C3(Cl)C1(Cl)C5(Cl)C24Cl (configuration not stated) in this assay.
Result block: false (0)

Query block: Same question for `CC(=O)[O][Hg][c]1ccccc1` please.
Result block: true (1)

Query block: Same for `CC(C)(OO)c1ccccc1`
Result block: false (0)

Query block: Now the compound `O=C(O)C(Cl)(Cl)Cl`
Result block: false (0)

Query block: Here is the next compound: `O=[N+]([O-])c1ccc(O)c([N+](=O)[O-])c1`
Result block: true (1)

Query block: Same for `CCCCCCCCc1ccc(O)cc1`
Result block: false (0)

* * *

assay: ATG_TCF_b_cat_CIS: Attagene CIS-FACTORIAL HepG2 Assay for human T-Cell-Factor with beta-catenin (TCF/b-cat) (AID 2282965); settings: HepG2 TCF/beta-catenin cis-reporter transcription, actives raise or lower the signal
The source made the active and inactive calls. How the source made its calls: active means hit-call score of the fitted dose curve at least 0.9, where 1 is the maximum; inactive means score below 0.9.
Output constraint: value belongs to Y (active), N (inactive)

Recorded results for 8 compounds are shown here.
| compound | category |
| --- | --- |
| CC(C)(C)c1cc(O)ccc1O | Y |
| O=[N+]([O-])c1ccc2c3c(cccc13)CC2 | N |
| O=C(OC1CCCCC1)c1ccccc1C(=O)OC1CCCCC1 | N |
| Clc1nc(Cl)nc(Cl)n1 | N |
| CC(C)(OO)c1ccccc1 | N |
| CC(=O)[O][Hg][c]1ccccc1 | N |
| O=C(Nc1ccc2[nH]ccc2c1)c1cc2cc(F)ccc2n1Cc1cccc(F)c1 | Y |
| [O-][Cl+2]([O-])O | N |

Query compound follows.
Query block: // return assay outcome for `CCc1ccccc1C`
Result block: N

* * *

read-out: Interleukin-1 alpha (IL1a), IL1A (gene 3552); assay: BSK_LPS_IL1a: BioMAP Diversity Plus: LPS Assay for Interleukin-1 alpha (IL1a) Biomarker Activity (AID 2283080); details: primary human HUVEC with PBMC; actives raise or lower the signal
Activity calls are given as the source filed them. How the source made its calls: active means hit-call score of the fitted dose curve at least 0.9, where 1 is the maximum; inactive means score below 0.9.
Thanks in advance; please answer with one of these: 1.0 for active, 0.0 for inactive

As a guide, the following entries are already answered.
| compound | category |
| --- | --- |
| CCN1CCC2(CC1)COc1cc3c(cc12)N(C(=O)c1ccc(-c2ccc(-c4nnc(C)o4)cc2C)cc1)CC3 | 1.0 |
| O=Cc1cccc(Oc2ccccc2)c1 | 0.0 |
| Cn1sc(Cl)cc1=O | 1.0 |
| O=S(=O)(c1ccc(Cl)cc1)c1ccc(Cl)cc1 | 0.0 |
| CCSC(C)CC1CC(=O)C(C(CC)=NOC/C=C/Cl)=C(O)C1 (configuration not stated) | 0.0 |

Alright, here's another compound for you.
Query block: GET /call?item= `O=C(O)C(Cl)(Cl)Cl` returns the recorded outcome of this test.
Result block: 0.0

* * *

read-out: Monocyte Chemoattractant Protein-1 (MCP1), CCL2 (gene 6347); assay: BSK_LPS_MCP1: BioMAP Diversity Plus: LPS Assay for Monocyte Chemoattractant Protein-1 (MCP1) Biomarker Activity (AID 2283081); details: primary human HUVEC with PBMC; actives raise or lower the signal
The source made the active and inactive calls. How the source made its calls: active means hit-call score of the fitted dose curve at least 0.9, where 1 is the maximum; inactive means score below 0.9.
The categories you may choose from are YES (active), NO (inactive)

Known results for compounds:
| compound | category |
| --- | --- |
| CC(=O)[O][Hg][c]1ccccc1 | YES |
| CCN1CCC2(CC1)COc1cc3c(cc12)N(C(=O)c1ccc(-c2ccc(-c4nnc(C)o4)cc2C)cc1)CC3 | YES |

Query block: Dear colleague, could you share the recorded outcome for `O=c1[nH]c(=O)[nH]c(=O)[nH]1` when you have a moment?
Result block: NO

Query block: Same read-out for `Nc1cccc2ccccc12` ?
Result block: NO

Query block: How about `C(=NC1CCCCC1)=NC1CCCCC1` ?
Result block: YES

Query block: Another compound to check: `CC(C)CCCCCCOC(=O)c1ccccc1C(=O)OCCCCCCC(C)C`
Result block: NO

Query block: // same read-out, input: `C=C(C)C(=O)[O][Sn]([CH2]CCC)([CH2]CCC)[CH2]CCC`
Result block: YES

Query block: Now try CCC(=O)C(CC(C)N(C)C)(c1ccccc1)c1ccccc1 (stereo not drawn) .
Result block: NO

Query block: Thanks! And `COc1cc(-c2ccc(N)c(OC)c2)ccc1N` ?
Result block: NO

* * *

read-out: E-selectin (Homo sapiens) (UniProt P16581); assay: BSK_SAg_Eselectin: BioMAP Diversity Plus: SAg Assay for Eselectin Biomarker Activity (AID 2283091); conditions: primary human HUVEC with PBMC; actives raise or lower the signal
Sequence (P16581 whole entry, looked up): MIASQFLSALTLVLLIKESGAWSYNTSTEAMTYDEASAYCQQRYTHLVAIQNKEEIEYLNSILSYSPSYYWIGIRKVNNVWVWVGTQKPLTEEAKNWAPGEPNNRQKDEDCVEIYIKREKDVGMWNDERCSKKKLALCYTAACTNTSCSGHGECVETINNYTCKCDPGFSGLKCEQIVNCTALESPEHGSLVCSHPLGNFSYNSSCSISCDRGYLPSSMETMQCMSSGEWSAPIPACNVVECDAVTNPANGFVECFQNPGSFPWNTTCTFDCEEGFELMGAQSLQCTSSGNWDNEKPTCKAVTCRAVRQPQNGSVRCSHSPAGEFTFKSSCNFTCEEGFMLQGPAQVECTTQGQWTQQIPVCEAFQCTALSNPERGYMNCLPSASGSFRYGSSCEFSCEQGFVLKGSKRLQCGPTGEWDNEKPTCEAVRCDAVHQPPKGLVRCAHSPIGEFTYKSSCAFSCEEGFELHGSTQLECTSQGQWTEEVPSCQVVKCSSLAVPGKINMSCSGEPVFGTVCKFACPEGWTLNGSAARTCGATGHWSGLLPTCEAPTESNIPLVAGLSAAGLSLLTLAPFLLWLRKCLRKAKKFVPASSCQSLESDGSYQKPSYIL
Calls of active or inactive are those of the source. How the source made its calls: active means hit-call score of the fitted dose curve at least 0.9, where 1 is the maximum; inactive means score below 0.9.
Pick from active, inactive when you respond.

Query block: I'd appreciate the recorded outcome for `CCOP(=S)(OCC)Oc1nc(Cl)c(Cl)cc1Cl` from this test.
Result block: active

Query block: Follow-up entry: `O=C(O)C(Cl)(Cl)Cl`
Result block: inactive

Query block: Next molecule: `CCOC(=O)/C=C(C)/C=C/C[C@@H](C)CCCC(C)C`
Result block: active

* * *

biological target: Estrogen receptor (Homo sapiens) (UniProt P03372); test: OT_ER_ERaERa_1440: Odyssey Thera (OT) 24-hour HEK293T Protein-Complementation Assay for Estrogen Receptor-alpha/-alpha Homodimer (AID 2283349);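 further: hits raise fluorescence above DMSO for agonists and antagonists alike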
Sequence (P03372 whole entry, looked up): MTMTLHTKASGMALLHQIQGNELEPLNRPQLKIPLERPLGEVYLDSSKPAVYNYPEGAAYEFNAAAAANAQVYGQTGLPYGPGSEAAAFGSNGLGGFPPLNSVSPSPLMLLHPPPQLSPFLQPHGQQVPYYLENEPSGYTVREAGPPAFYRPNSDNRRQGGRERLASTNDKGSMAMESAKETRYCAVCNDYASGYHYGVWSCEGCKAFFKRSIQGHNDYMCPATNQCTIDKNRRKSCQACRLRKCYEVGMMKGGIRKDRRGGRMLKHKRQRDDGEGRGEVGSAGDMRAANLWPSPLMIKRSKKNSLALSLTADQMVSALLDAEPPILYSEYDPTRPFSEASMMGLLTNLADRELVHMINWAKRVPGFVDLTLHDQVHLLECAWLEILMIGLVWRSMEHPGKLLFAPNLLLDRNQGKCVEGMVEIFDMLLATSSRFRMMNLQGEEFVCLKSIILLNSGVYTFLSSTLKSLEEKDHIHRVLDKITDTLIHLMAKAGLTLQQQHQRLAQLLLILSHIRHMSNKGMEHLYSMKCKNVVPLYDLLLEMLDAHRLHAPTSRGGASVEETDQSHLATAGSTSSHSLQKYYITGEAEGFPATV
Active and inactive are the calls of the source. How the source made its calls: active means hit-call score of the fitted dose curve at least 0.9, where 1 is the maximum; inconclusive means response in the unintended direction; inactive means score below 0.9.
Outcomes you can answer with include only these: Y for active, N for inactive

Past entries and their recorded results:
| molecule | category |
| --- | --- |
| NC(=O)O | N |
| CCC1(c2ccc(N)cc2)CCC(=O)NC1=O (stereo unspecified) | N |
| Cc1ccccc1C(=O)Nc1cccc(OC(C)C)c1 | N |
| O=C(OC1CCCCC1)c1ccccc1C(=O)OC1CCCCC1 | Y |
| CCOC(=O)Nc1cccc(OC(=O)Nc2ccccc2)c1 | N |

Query block: Would you mind telling me which call this test gave `COC(=O)c1sccc1S(=O)(=O)NC(=O)Nc1nc(C)nc(OC)n1` ?
Result block: N

Query block: Next up: `C=CC(=O)OCCCCCC(C)C`
Result block: N

Query block: Same question, `CC(=O)C=C(C)C` this time
Result block: Y
